- tgt: SMARCA2 (Homo sapiens, UniProt P51531)
- Sequence (P51531 whole entry): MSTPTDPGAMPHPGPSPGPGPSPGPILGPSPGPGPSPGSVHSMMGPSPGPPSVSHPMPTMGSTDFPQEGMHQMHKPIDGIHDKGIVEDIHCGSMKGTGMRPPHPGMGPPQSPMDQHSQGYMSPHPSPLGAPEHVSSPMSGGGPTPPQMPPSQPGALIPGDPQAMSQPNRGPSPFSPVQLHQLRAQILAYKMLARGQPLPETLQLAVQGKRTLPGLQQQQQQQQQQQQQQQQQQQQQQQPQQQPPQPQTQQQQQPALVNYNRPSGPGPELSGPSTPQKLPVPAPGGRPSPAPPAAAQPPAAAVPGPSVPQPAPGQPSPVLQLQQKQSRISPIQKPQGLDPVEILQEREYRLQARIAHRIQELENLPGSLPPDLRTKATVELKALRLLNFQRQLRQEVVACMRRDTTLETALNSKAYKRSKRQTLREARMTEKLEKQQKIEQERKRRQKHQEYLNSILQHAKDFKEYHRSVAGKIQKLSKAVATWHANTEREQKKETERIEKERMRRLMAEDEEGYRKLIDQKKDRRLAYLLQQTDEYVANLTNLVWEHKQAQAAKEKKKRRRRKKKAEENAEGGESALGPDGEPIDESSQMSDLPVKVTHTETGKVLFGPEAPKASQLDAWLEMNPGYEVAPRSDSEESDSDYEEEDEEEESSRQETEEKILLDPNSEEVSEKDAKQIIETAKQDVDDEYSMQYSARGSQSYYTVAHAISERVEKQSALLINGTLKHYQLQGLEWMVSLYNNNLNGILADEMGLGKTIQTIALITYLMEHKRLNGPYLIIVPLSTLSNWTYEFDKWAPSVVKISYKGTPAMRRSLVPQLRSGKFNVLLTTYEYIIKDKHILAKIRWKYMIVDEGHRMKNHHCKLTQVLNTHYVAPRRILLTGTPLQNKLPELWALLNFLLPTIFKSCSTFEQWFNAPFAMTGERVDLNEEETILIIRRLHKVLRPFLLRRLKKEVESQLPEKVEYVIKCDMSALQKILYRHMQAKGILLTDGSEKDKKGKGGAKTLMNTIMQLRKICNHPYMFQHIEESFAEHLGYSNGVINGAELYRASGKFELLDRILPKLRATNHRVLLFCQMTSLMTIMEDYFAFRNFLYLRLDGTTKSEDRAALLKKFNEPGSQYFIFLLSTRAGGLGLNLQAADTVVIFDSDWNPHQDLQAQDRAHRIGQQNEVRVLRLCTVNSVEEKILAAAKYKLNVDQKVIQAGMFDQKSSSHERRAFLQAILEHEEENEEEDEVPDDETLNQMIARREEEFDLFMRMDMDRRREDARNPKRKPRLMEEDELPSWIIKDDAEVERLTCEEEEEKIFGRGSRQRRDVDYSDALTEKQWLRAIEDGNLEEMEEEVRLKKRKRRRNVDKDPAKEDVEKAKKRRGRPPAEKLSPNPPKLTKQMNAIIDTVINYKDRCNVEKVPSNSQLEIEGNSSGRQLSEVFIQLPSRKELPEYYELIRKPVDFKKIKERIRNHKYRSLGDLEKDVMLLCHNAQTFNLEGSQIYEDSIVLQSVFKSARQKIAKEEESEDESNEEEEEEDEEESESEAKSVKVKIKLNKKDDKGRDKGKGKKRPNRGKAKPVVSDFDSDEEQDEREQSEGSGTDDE
- method: MSD SMARCA2 degradation in A549 cell line
- Assay type: cell-based
- experimental-context: A549 cells, 24 h, read-out: SMARCA2 MSD A549 degradation 24 h: Average external-Abs DC50
measured-property: DC50

Query: DC50; subject: C#Cc1ccc(CNC(=O)[C@@H]2C[C@@H](O)CN2C(=O)[C@@H](NC(=O)[C@H]2CCC3(CC2)C[C@H](N2CCN(c4cnc(N5CCN6c7cc(-c8ccccc8O)nnc7NC[C@H]6C5)nc4)CC2)C3)C(C)(C)C)cc1 (single isomer, unassigned) [I-170]
10 to 50 nM

Look up DC50: C#Cc1ccc(CNC(=O)[C@@H]2C[C@@H](O)CN2C(=O)[C@@H](NC(=O)[C@H]2CC3(C2)C[C@H](N2CCN(C(=O)CCN4CCN5c6cc(-c7ccccc7O)nnc6NC[C@H]5C4)CC2)C3)C(C)(C)C)cc1 (stereo partly shown) [I-275]
> 100 nM

// lookup DC50 for "Cc1ncsc1-c1ccc(CNC(=O)[C@@H]2C[C@@H](O)CN2C(=O)[C@@H](NC(=O)N2CC3(CC(N4CCC(c5cnc(N6CCc7[nH]c8nnc(-c9ccccc9O)cc8c7[C@H]6C)nc5)CC4)C3)C2)C(C)(C)C)cc1"
10 to 50 nM

# lookup: DC50 of COc1cc(C(C(=O)N2C[C@H](O)C[C@H]2C(=O)NCC#Cc2ccccc2OCCCCN2CCC(c3cnc(N4CCN5c6cc(-c7ccccc7O)nnc6NC[C@H]5C4)nc3)CC2)C(C)C)on1 (stereo partly shown)
10 to 50 nM
